All values here come from PubChem BioAssay (NCI).

- System: SN12C renal
- procedure.text: NCI tumour cell line growth inhibition, 48 h
Answer each item with its documented TGI.

Determine its reported TGI: O=C(Nc1nncs1)NS(=O)(=O)n1c(=S)sc2ccccc21
> 100 µM

Note down TGI recorded for CCOC(=O)C1(C/C=C/CBr)CCc2ccccc2C1=O (stereo unspecified)
34.8 µM

// fetch TGI given entry O=CN1CCN(CC(O)CN2CCCCC2)CC1 (stereo unspecified)
> 100 µM

Retrieve TGI measured for [N-]=[N+]=Nc1cc(=O)n2c3c(cccc13)CCC2 and print it.
> 100 µM

Report TGI for COC(=O)c1c(C#N)[nH]c(-c2ccsc2)c1C(=O)OC
> 100 µM

Report TGI for O=[N+]([O-])c1ccc(N2N=C(c3ccc(NCc4nc5ccccc5[nH]4)cc3)CC2c2ccco2)cc1 (stereo unspecified)
61.9 µM

====

- System: U251 CNS
- procedure.text: NCI tumour cell line growth inhibition, 48 h
measure: TGI (µM)
# number only, unit µM dropped from output

Please report the measured TGI for C#COc1cccc(Nc2c(C#N)cnc3ncc(NC(=O)CCl)cc23)c1
53.6

Find the measured TGI of COc1cc2c(c(OC)c1OC)-c1ncc3cc4c(cc3c1C2)OCO4 and report it.
54.2

====

- System: HT29 colon
- procedure.text: NCI tumour cell line growth inhibition, 48 h
measure: GI50

Quickly give me recorded GI50 for COc1cc(OC)c(/C=C/c2c3ccccc3cc[n+]2C)c(OC)c1
1.64 µM

Give GI50 for the following compound: COc1ccc(-n2c(C)cc(-c3ccccc3)c2C)cc1
1.89 µM

Quote GI50 reported for Cc1cc(C)c(/C=C2\C(=O)Nc3ccc(NC(=O)CCCCCCC(=O)NO)cc32)[nH]1 please.
0.859 µM

Report GI50, nothing else, for this compound: CCCCCOc1ccc(/C=N/Nc2cc(C)nc3ccc(Br)cc23)cc1
1.94 µM

Give the value of GI50 reported for the following: OCCCNc1nccc(-c2c(-c3ccc(F)cc3)nn3cc(C(F)(F)F)ccc23)n1
7.73 µM

====

- Tested on: MDA-N
- procedure.text: NCI tumour cell line growth inhibition, 48 h
measure: TGI

Name the recorded TGI of the compound listed here: CCCCCCOc1ccc(Nc2c(O)c3c(c(O)c2Cl)C(=O)C=CC3=O)cc1
> 6.89 µM

Determine from records and report TGI for Cc1cc(C2CC(O)C(CO)O2)c(F)cc1F (centres undefined)
> 100 µM

Given CCn1sc2ccccc2c1=O , respond with its TGI.
8.99 µM

Read off the recorded TGI for COC1=CC2C(c3cc4ccccc4n3S(=O)(=O)c3ccccc3)CC1CN2C(=O)OCc1ccccc1 (centres undefined)
> 100 µM

Input COc1ccc2[nH]c3c(c2c1)CC(=S)N1CCCC(CC3=O)C1 (centres undefined) , output reported TGI.
> 100 µM

Give TGI for CCOC(=O)C1(C/C=C/CBr)CCc2ccccc2C1=O (centres undefined)
30.3 µM

Consider the compound Oc1cc(O)cc(-c2nc3cc(F)ccc3s2)c1 . State its measured TGI.
> 100 µM

Identify measured TGI associated with Fc1ccc(C(=C2CCN(CCc3ccc4[nH]c(=S)[nH]c4c3)CC2)c2ccc(F)cc2)cc1
4.81 µM

Complete the entry with TGI for COc1cccc2cc(C(=O)O)c(=O)oc12
> 100 µM

====

Could you please report measured TGI for the items listed next?
- Tested on: NCI-H460 lung
- procedure.text: NCI tumour cell line growth inhibition, 48 h

Identify measured TGI associated with O=C(O)C1C2C=CC(C2)C1c1ccccc1 (stereo not drawn)
> 100 µM

Given COc1cc(N(CCC#N)CCC#N)ccc1/C(N=Nc1ccccc1C)=N\NC(=O)c1ccc(C)cc1 , respond with its TGI.
> 100 µM

Check the records and state TGI for CC1=NC(=Cc2cc(Br)cc(Br)c2)C(=O)N1n1c(-c2ccccc2)nc2ccccc2c1=O
> 100 µM

Using the record for O=C(CCc1cc(O)ccc1O)OCCc1ccccc1 , state its measured TGI.
> 100 µM

Respond only with TGI recorded for O=C(O)c1nc2ccc(C(F)(F)F)cc2nc1NCc1ccc(F)cc1
63 µM

Identify measured TGI associated with COc1ccc(-n2c(C)cc(-c3ccccc3)c2C)cc1
18.9 µM

Using the record for N#Cc1c(N/N=C/c2ccc(Cl)cc2Cl)nc(N)nc1N1CCCC1 , state its measured TGI.
> 100 µM

Note down TGI recorded for O=C1c2cccc3cccc(c23)C2NCCCN12 (stereo not drawn)
> 100 µM

Identify measured TGI corresponding to C=C1C(=O)O[C@H]2[C@H]1CC/C(COC(=O)/C=C\C(=O)NCc1ccc(Cn3c(=O)sn(CCCC)c3=O)cc1)=C\CC[C@@]1(C)O[C@@H]21
2.73 µM

Determine from records and report TGI for O=C1NC(=O)/C(=C\c2ccccc2)C2=C1CCCC2
36 µM

Item Nc1nc(NCC2(CO)CC2)cc(=O)[nH]1 : provide TGI
> 100 µM

Please supply the value of reported TGI for the item CC(=O)O[C@H]1CCC2[C@@H]3CCC4Nc5oncc5C[C@]4(C)C3CC[C@@]21C (stereo partly drawn)
> 10 µM

Report TGI for CC(C)CC(NC(=O)C(CI)Cc1ccccc1)C(=O)Nc1ccccc1 (stereo not drawn)
> 100 µM

Quickly give me recorded TGI for C=CC1C(OC2OC(CO)C(O)C(O)C2O)OC=C(C(=O)OC)C1CC1CC(=O)CC(CCc2ccc(O)cc2)O1 (stereo not drawn)
> 100 µM

Respond only with TGI recorded for COC(=O)C1=C(C(=O)Nc2cccnc2Cl)N(c2ccc(OC)cc2[N+](=O)[O-])C(c2ccc(C)cc2)=CC1c1ccc(OC)cc1OC (stereo not drawn)
> 79.3 µM

State its TGI: CN1CCc2c(sc3ncn(C)c(=N)c23)C1
> 100 µM

Look up and report measured TGI for this entry: CC(=O)O/C(=C1\C[C@H]2[C@@H]3CC=C4C[C@@H](OC(C)=O)CC[C@]4(C)[C@H]3CC[C@]2(C)C1=O)C(F)(F)F
18.3 µM

Tell me measured TGI for CN(C)CC1CCC/C(=C\c2ccc(Cl)cc2)C1=O (stereo not drawn) please.
43.3 µM

Kindly indicate its recorded TGI. Item: O=C(Oc1cccnc1)c1cc2cc(CCl)ccc2oc1=O
> 100 µM

Supply TGI value. Item: COc1cc(C(C)=O)cc(C(=O)N(C(C)C)C(C)C)c1[Si](C)(C)C
> 100 µM

Give the reported value of TGI for this record: Ic1cccc(/C=C/CN2CCN(CCOC(c3ccccc3)c3ccccc3)CC2)c1
32.4 µM

Identify TGI associated with the compound COC(=O)[C@H](Cc1c[nH]c2ccccc12)NC(=O)c1ccc(CNC(=O)/C(C)=C/c2ccccc2)cc1
> 100 µM

Give a short answer stating reported TGI for CCN(Cc1ccccc1C)c1ccc(CO)c(Cl)c1 .
12.7 µM

Output TGI of Cn1c(=O)oc2cc(C(O)CN3CCN(Cc4ccccn4)CC3)c(Cl)cc21 (stereo not drawn)
> 100 µM

Using known records, supply TGI for Cc1ccccc1N/C(=C(/C(Cl)=C(Cl)Cl)[N+](=O)[O-])n1nnc2ccccc21
28.5 µM

Supply TGI value. Item: Cc1cc(C)c2c(c1)C/C(=C\c1ccccc1C(=O)O)C2=O
26.4 µM

For O=C(O/C=C\OC1CCCC1(c1ccccc1)c1ccccc1)c1ccccc1 (stereo not drawn) , write its TGI.
88.8 µM

Please list TGI recorded for the compound O=C1NP23(OCCO2)Oc2ccccc2C3(C(F)(F)F)O1 (stereo not drawn)
> 100 µM

====

- System: RXF 393 renal
- procedure.text: NCI tumour cell line growth inhibition, 48 h
measure: TGI

Provide the reported TGI (system: RXF 393 renal) for CC(C)(S)C(N)C(=O)O (configuration not stated)
> 5000 µM

Tell me TGI of CN(C)c1ccc(/C=N\NC(=O)Nc2cccc3ccccc23)cc1 when tested on RXF 393 renal.
> 100 µM

Report TGI under test system RXF 393 renal for N#Cc1c(N/N=C/c2ccc(Cl)cc2Cl)nc(N)nc1N1CCCC1 .
66.2 µM

State TGI (RXF 393 renal) of CC(C)CC(NC(=O)C(CI)Cc1ccccc1)C(=O)Nc1ccccc1 (configuration not stated) .
> 100 µM

Find TGI for COC(=O)C1=C(C(=O)Nc2cccnc2Cl)N(c2ccc(OC)cc2[N+](=O)[O-])C(c2ccc(C)cc2)=CC1c1ccc(OC)cc1OC (configuration not stated) on RXF 393 renal and write it down.
22.2 µM

Given CC1=C(C(=O)Nc2ccc(Cl)c(Cl)c2)C(c2cccc(Oc3ccccc3)c2)NC(=O)N1 (configuration not stated) , report its TGI on RXF 393 renal.
26.5 µM

# return TGI for COC(=O)c1ccccc1Nc1nc(-c2cccs2)nc2cc(OC)c(OC)cc12 , test system: RXF 393 renal
> 100 µM

# lookup: RXF 393 renal TGI, key = N#CC(C(=O)C(=O)Nc1ccc(Cl)cc1)c1ccccc1 (configuration not stated)
> 100 µM

For RXF 393 renal, give TGI of the listed compound: C=C(C(=O)O)[C@@H]1C[C@@H](OC(C)=O)[C@]2(C)CC/C=C(\C)CCC[C@H](C)[C@H](O)[C@@H]1O2
65.9 µM

Quote RXF 393 renal TGI for entry COc1ccc(NC(=O)N(C)CC2(O)CCC(C(C)(C)C)CC2)cc1 (configuration not stated) .
92.9 µM

Specify the recorded TGI for CC(O)CCCCC(O)CCC[C@H](O)[C@H]1CCC([C@H]2CCC([C@@H](O)CCCCCCCCCCCCC3=C[C@H](C)OC3=O)O2)O1 (some centres not stated) , system: RXF 393 renal.
22.5 µM

# assay system RXF 393 renal: give TGI of CCOP(=O)(OCC)OC1C=CC2CCC1C2 (configuration not stated)
> 100 µM

System RXF 393 renal. Read-out TGI. Item CCOC(=O)CO/N=C1/C(c2c(O)[nH]c3ccccc23)=Nc2ccccc21 . Report value.
29.2 µM

Retrieve TGI on RXF 393 renal; query CN(C)CCNC(=O)c1ccc2nc3c(nc2c1)C(=O)c1ccccc1-3
> 100 µM

Find the measured TGI of COc1ccc(-n2c(C)cc(-c3ccccc3)c2C)cc1 with RXF 393 renal as test system.
5.31 µM

With RXF 393 renal as the test system, provide measured TGI for this compound: O=C(O)c1nc2ccc(C(F)(F)F)cc2nc1NCc1ccc(F)cc1
> 100 µM

Please respond with reported TGI (system RXF 393 renal) for CCOP(=O)(COCCn1ncc(=O)[nH]c1=O)OCC .
> 100 µM

Report measured TGI on RXF 393 renal; entry: CCOC(=O)c1c(NC(=O)OC)c(C#N)c2n1CCCCC2
> 100 µM

Please look at N#CC(OC1OC(COC2OC(CO)C(O)C(O)C2O)C(O)C(O)C1O)c1ccccc1 (configuration not stated) and tell me its recorded TGI on RXF 393 renal.
> 225 µM

Find TGI for CCOC(=O)/C=C/[C@H](O[Si](CC)(CC)CC)C(C)(C)C on RXF 393 renal and write it down.
> 100 µM

# assay system RXF 393 renal: give TGI of O=C(O)C1C2C=CC(C2)C1c1ccccc1 (configuration not stated)
> 100 µM

Return reported TGI for target or system RXF 393 renal, item O=[N+]([O-])/C(C(Cl)=C(Cl)Cl)=C(/Nc1ccccc1)SCc1ccccc1 .
35.5 µM

Write down the reported TGI (system: RXF 393 renal) of N#CC1=C(Nc2ccccc2)SC=C(c2ccccc2)NC1=NCc1ccccc1
> 100 µM

Answer with TGI of NC(=O)OCCn1cc(-c2nc(-c3c[nH]c4ncccc34)cs2)c2ccccc21 measured for RXF 393 renal.
5.56 µM

Under RXF 393 renal, report TGI for COC(=O)c1c(C#N)[nH]c(-c2ccsc2)c1C(=O)OC
> 100 µM

Write down the reported TGI (system: RXF 393 renal) of CC(C(=O)OCc1ccccc1)(c1ccco1)N1C(=O)OC(c2ccccc2)C1c1ccccc1 (configuration not stated)
> 100 µM

Given COC(=O)/C=C1\CCC(C)O1 (configuration not stated) , report its TGI on RXF 393 renal.
> 100 µM

// fetch TGI for CC(CO)CCNc1ncnc2c1ncn2CCC(=O)OC(C)(C)C (configuration not stated) ; system: RXF 393 renal
> 100 µM

Tell me TGI of O=C(/C=C/c1ccccc1Cl)NC1C=Nc2ccc([N+](=O)[O-])cc2NC1 (configuration not stated) when tested on RXF 393 renal.
> 100 µM

Report the value of TGI obtained on RXF 393 renal for CCn1sc2ccccc2c1=O .
11.7 µM

GET TGI where system = RXF 393 renal and item = c1ccc(NN=C(c2ccccn2)c2ccccn2)nc1
> 100 µM

Please report the measured TGI for Cc1cn(C2CC(O)C(CO[Si](C)(C)C(C)(C)C)OC2OC(C)C)c(=O)[nH]c1=O (configuration not stated) tested on RXF 393 renal.
88.7 µM
